- System: Oryza sativa
- experimental.protocol: Effect on Oryza sativa (rice) assessed as growth rate at 1 uM relative to control
- Type: organism-based
- particulars: in vivo
Give Activity for every item shown.
One number for each entry, in %.

[[record]]
smiles_string = "CCCCCc1ccc(NC(=O)N[C@@H](C)c2ccccc2)cc1"
test_target = "Oryza sativa"
result_unit = "%"
observed_measurement = 98

[[record]]
smiles_string = "C[C@H](NC(=O)Nc1ccc(F)cc1)c1ccccc1"
test_target = "Oryza sativa"
result_unit = "%"
observed_measurement = 97

[[record]]
smiles_string = "CCc1ccccc1NC(=O)N[C@@H](C)c1ccccc1"
test_target = "Oryza sativa"
result_unit = "%"
observed_measurement = 100

[[record]]
smiles_string = "C[C@H](NC(=O)Nc1ccc(I)cc1)c1ccccc1"
test_target = "Oryza sativa"
result_unit = "%"
observed_measurement = 97

[[record]]
smiles_string = "Cc1cc(F)ccc1NC(=O)N[C@H](C)c1ccccc1"
test_target = "Oryza sativa"
result_unit = "%"
observed_measurement = 100

[[record]]
smiles_string = "C[C@@H](NC(=O)Nc1ccccc1Br)c1ccccc1"
test_target = "Oryza sativa"
result_unit = "%"
observed_measurement = 100

[[record]]
smiles_string = "CCCCCCc1ccc(NC(=O)N[C@H](C)c2ccccc2)cc1"
test_target = "Oryza sativa"
result_unit = "%"
observed_measurement = 101


Please look up its Activity: C[C@H](NC(=O)Nc1cc(F)ccc1F)c1ccccc1
98
